- target or system: Recombinant STAT3 protein (STAT3 (G127-I722)) (Homo sapiens, UniProt P40763)
- Construct: Recombinant STAT3 protein (STAT3 (G127-I722))
- Sequence (P40763 127-722): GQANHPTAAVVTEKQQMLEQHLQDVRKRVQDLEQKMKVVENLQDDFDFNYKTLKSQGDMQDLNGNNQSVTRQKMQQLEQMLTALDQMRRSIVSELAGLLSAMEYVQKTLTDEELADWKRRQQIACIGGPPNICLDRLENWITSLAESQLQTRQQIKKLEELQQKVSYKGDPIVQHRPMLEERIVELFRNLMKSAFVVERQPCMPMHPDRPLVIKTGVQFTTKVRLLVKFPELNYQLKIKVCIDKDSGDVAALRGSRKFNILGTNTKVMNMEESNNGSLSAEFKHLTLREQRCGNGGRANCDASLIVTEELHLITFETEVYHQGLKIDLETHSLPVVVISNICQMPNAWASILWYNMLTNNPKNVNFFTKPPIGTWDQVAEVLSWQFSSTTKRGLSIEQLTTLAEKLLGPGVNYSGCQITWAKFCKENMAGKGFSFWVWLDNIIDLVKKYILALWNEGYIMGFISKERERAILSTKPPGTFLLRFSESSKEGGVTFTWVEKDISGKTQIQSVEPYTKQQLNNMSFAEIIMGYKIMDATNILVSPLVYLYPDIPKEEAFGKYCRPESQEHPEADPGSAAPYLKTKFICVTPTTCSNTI
- experimental protocol: STAT3 Fluorescence Polarization (FP) Assay
- Type: binding
- study conditions: STAT3 25 nM, probe 5-FAM-GpYLPQTV-NH2 2 nM, 45-minute incubation; read-out: STAT3 (FP assay IC50)
Would you mind telling me the reported IC50 of each entry?

query: Could you share what IC50 was measured for C[C@@H]1[C@@H](n2ccnc2)CN1C(=O)[C@@H]1CC[C@@H]2CCC[C@H](NC(=O)c3cc4cc(C(F)(F)P(=O)(O)O)ccc4s3)C(=O)N21 , tested on Recombinant STAT3 protein (STAT3 (G127-I722)) (Homo sapiens, UniProt P40763)?
result: < 100 nM

query: Could you share what IC50 was measured for O=C(N[C@H]1C[C@@H](O)CC[C@H]2CC[C@@H](C(=O)N3CC(C(=O)N4CCOCC4)C3)N2C1=O)c1cc2cc(C(F)(F)P(=O)(O)O)ccc2s1 , tested on Recombinant STAT3 protein (STAT3 (G127-I722)) (Homo sapiens, UniProt P40763)?
result: 100 to 1000 nM

query: Could you share what IC50 was measured for Cc1cnn(C2CN(C(=O)[C@@H]3CC[C@@H]4CCCC[C@H](NC(=O)c5cc6cc(C(F)(F)P(=O)(O)O)ccc6s5)C(=O)N43)C2)c1 , tested on Recombinant STAT3 protein (STAT3 (G127-I722)) (Homo sapiens, UniProt P40763)?
result: 100 to 1000 nM

query: Could you share what IC50 was measured for O=C(N[C@H]1CC[C@@H](OCc2ccccc2)C[C@H]2CC[C@@H](C(=O)N3CC(C(=O)N4CCOCC4)C3)N2C1=O)c1cc2cc(C(F)(F)P(=O)(O)O)ccc2s1 , tested on Recombinant STAT3 protein (STAT3 (G127-I722)) (Homo sapiens, UniProt P40763)?
result: 100 to 1000 nM

Next:
query: Could you share what IC50 was measured for CCO[C@H]1CC[C@H]2CC[C@@H](C(=O)N3CC(C(=O)N4CCOCC4)C3)N2C(=O)[C@@H](NC(=O)c2cc3cc(C(F)(F)P(=O)(O)O)ccc3s2)C1 , tested on Recombinant STAT3 protein (STAT3 (G127-I722)) (Homo sapiens, UniProt P40763)?
result: 100 to 1000 nM
